Overview of reported relative β-galactosidase activity, inducer Tb across a group of molecules:
- Tested on: tetA promoter (PtetA)-lacZ reporter in E. coli KM3
- Format: cell-based
- MEASUREMENT PARAMETERS: Table 4; tribenuron 20 μg/ml (20 ppm); 48 hrs at 30° C.
The answer should be a number; do not append a unit.

{"MOLECULE": "L1-2: library L1 hit, sulfonylurea-responsive TetR(B) variant, SEQ ID NO: 3 (protein, Sulfonylurea responsive repressor L1-02) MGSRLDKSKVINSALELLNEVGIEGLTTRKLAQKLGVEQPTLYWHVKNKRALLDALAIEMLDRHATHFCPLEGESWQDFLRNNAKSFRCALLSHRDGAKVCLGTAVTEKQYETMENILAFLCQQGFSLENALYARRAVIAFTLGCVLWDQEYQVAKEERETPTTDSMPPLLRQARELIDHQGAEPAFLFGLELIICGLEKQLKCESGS", "TEST VALUE": 1.7}

From here, focus on the item given below.
input: Could you share which relative β-galactosidase activity, inducer Tb value was measured for L1-29: library L1 hit, sulfonylurea-responsive TetR(B) variant, SEQ ID NO: 10 (protein, Sulfonylurea responsive repressor L1-29) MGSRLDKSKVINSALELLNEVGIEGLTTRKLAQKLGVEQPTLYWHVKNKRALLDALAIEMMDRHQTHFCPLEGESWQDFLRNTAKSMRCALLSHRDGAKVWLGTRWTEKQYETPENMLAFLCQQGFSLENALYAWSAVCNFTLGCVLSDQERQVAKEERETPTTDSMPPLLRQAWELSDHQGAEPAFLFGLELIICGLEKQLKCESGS ?
output: 0.3
